Source: ChEMBL document CHEMBL4152281

Each entry below carries its recorded pIC50.
# TGT: Carbonic anhydrase 9 (Homo sapiens, UniProt Q16790)
# METHOD SUMMARY: Inhibition of human carbonic anhydrase 9 expressed in Escherichia coli BL21 D3 strain using p-nitrophenyl acetate as substrate by UV/visible spectrophotometry
pIC50: −log10 of the molar value.
OBSERVED PROPERTY: pIC50

[
  {
    "SAMPLE SMILES": "O=C(/C=C/c1cn(S(=O)(=O)c2cccc3ccccc23)c2ccccc12)c1ccncc1",
    "OBSERVED PROPERTY": "pIC50",
    "QUANTITATIVE RESULT": 4.36
  },
  {
    "SAMPLE SMILES": "O=C(/C=C/c1cn(S(=O)(=O)c2ccc(Cl)cc2)c2ccccc12)c1ccncc1",
    "OBSERVED PROPERTY": "pIC50",
    "QUANTITATIVE RESULT": 4.84
  },
  {
    "SAMPLE SMILES": "O=C(/C=C/c1cn(S(=O)(=O)c2ccccc2[N+](=O)[O-])c2ccccc12)c1ccncc1",
    "OBSERVED PROPERTY": "pIC50",
    "QUANTITATIVE RESULT": 4.24
  },
  {
    "SAMPLE SMILES": "O=C(/C=C/c1cn(S(=O)(=O)c2ccc([N+](=O)[O-])cc2)c2ccccc12)c1ccncc1",
    "OBSERVED PROPERTY": "pIC50",
    "QUANTITATIVE RESULT": 6.82
  },
  {
    "SAMPLE SMILES": "CCCS(=O)(=O)n1cc(/C=C/C(=O)c2ccncc2)c2ccccc21",
    "OBSERVED PROPERTY": "pIC50",
    "QUANTITATIVE RESULT": 4.35
  },
  {
    "SAMPLE SMILES": "COc1ccc(S(=O)(=O)n2cc(/C=C/C(=O)c3ccncc3)c3ccccc32)cc1",
    "OBSERVED PROPERTY": "pIC50",
    "QUANTITATIVE RESULT": 4.58
  },
  {
    "SAMPLE SMILES": "CC(C)(C)c1ccc(S(=O)(=O)n2cc(/C=C/C(=O)c3ccncc3)c3ccccc32)cc1",
    "OBSERVED PROPERTY": "pIC50",
    "QUANTITATIVE RESULT": 6.82
  },
  {
    "SAMPLE SMILES": "O=C(/C=C/c1cn(S(=O)(=O)c2cccc([N+](=O)[O-])c2)c2ccccc12)c1ccncc1",
    "OBSERVED PROPERTY": "pIC50",
    "QUANTITATIVE RESULT": 4.43
  },
  {
    "SAMPLE SMILES": "O=C(/C=C/c1cn(S(=O)(=O)c2ccc(Cl)cc2Cl)c2ccccc12)c1ccncc1",
    "OBSERVED PROPERTY": "pIC50",
    "QUANTITATIVE RESULT": 6.89
  },
  {
    "SAMPLE SMILES": "Cc1ccc(S(=O)(=O)n2cc(/C=C/C(=O)c3ccncc3)c3ccccc32)cc1",
    "OBSERVED PROPERTY": "pIC50",
    "QUANTITATIVE RESULT": 4.52
  }
]
